Just for reference, patent US20140294898A1 is where these values come from.

Reported pIC50 values follow for various binders
assayed.target: T1, human PD-L1 (human, UniProt Q9NZQ7 19-239, limits assumed)
T1 construct: also called Hu PD-L1; hPD-L1
T1 sequence (Q9NZQ7 19-239 limits assumed): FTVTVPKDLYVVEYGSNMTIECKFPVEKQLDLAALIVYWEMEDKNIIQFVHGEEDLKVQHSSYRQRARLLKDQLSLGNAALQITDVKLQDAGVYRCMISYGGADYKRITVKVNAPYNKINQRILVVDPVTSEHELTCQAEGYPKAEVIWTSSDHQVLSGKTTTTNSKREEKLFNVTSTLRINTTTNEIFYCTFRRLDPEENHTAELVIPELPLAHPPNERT
assay.comment: cell binding assay, inhibition of Hu PD-L1/PD-1 binding
pIC50: −log10 of the molar value. Positions of bridges follow the written chain, without caps; N, C: chain ends. Non-standard residues stand in square brackets, D forms with d. NMeNle = CCCC[C@H](NC)C(=O)O; NMeA = CN[C@@H](C)C(=O)O; dNMeA = CN[C@H](C)C(=O)O; Sar = CNCC(=O)O
reported.endpoint: pIC50

INSERT INTO results (binder, reported_endpoint, number) VALUES
  ('{CH2CO}-F[NMeA]NPHL[dNMeA]WSW[NMeNle][NMeNle]RCG-NH2 (thioether N-14; SMILES CCCC[C@H]1C(=O)N(C)[C@@H](CCCC)C(=O)N[C@@H](CCCNC(=N)N)C(=O)N[C@H](C(=O)NCC(N)=O)CSCC(=O)N[C@@H](Cc2ccccc2)C(=O)N(C)[C@@H](C)C(=O)N[C@@H](CC(N)=O)C(=O)N2CCC[C@H]2C(=O)N[C@@H](Cc2c[nH]cn2)C(=O)N[C@@H](CC(C)C)C(=O)N(C)[C@H](C)C(=O)N[C@@H](Cc2c[nH]c3ccccc23)C(=O)N[C@@H](CO)C(=O)N[C@@H](Cc2c[nH]c3ccccc23)C(=O)N1C, macrocyclic peptide, Formula I series; also called Compound 14) [Compound No. 14]', 'pIC50', 6.62),
  ('{CH2CO}-F[NMeA]GPHL[Sar]WSW[NMeNle][NMeNle]RCG-NH2 (thioether N-14; SMILES CCCC[C@H]1C(=O)N(C)[C@@H](CCCC)C(=O)N[C@@H](CCCNC(=N)N)C(=O)N[C@H](C(=O)NCC(N)=O)CSCC(=O)N[C@@H](Cc2ccccc2)C(=O)N(C)[C@@H](C)C(=O)NCC(=O)N2CCC[C@H]2C(=O)N[C@@H](Cc2c[nH]cn2)C(=O)N[C@@H](CC(C)C)C(=O)N(C)CC(=O)N[C@@H](Cc2c[nH]c3ccccc23)C(=O)N[C@@H](CO)C(=O)N[C@@H](Cc2c[nH]c3ccccc23)C(=O)N1C, macrocyclic peptide, Formula I series; also called Compound 43) [Compound No. 43]', 'pIC50', 5.27);
